read-out: E-selectin (Homo sapiens); experiment: BSK_LPS_Eselectin: BioMAP Diversity Plus: LPS Assay for Eselectin Biomarker Activity (AID 2283077); details: primary human HUVEC with PBMC; actives raise or lower the signal
Calls of active or inactive are those of the source. Rule for the calls: active = hit-call score of the fitted dose curve at least 0.9, where 1 is the maximum; inactive = score below 0.9.
Mark one answer only. Choices: true (1) = active, false (0) = inactive

Examples from the recorded data:
* Cc1nc(-c2ccccn2)ncc1C(=O)Nn1cc(C)c2cc(F)ccc21 | false (0)
* CCCCC(CC)C(=O)OCCOCCOCCOC(=O)C(CC)CCCC (stereo unspecified) | false (0)
* O=C(O)c1cccc(C[C@@H]2COc3ccc(OCc4nc5cc(F)ccc5s4)cc3[C@@H]2O)c1 | false (0)
* C[C@@H](Oc1ccc(CNC(=O)c2cccnc2Oc2ccc3c(c2)OCO3)c(F)c1)C(=O)O | false (0)

Could you check what this test reported for "CCN(CC)C(=S)SSC(=S)N(CC)CC" ? true (1)

Could you check what this test reported for "COCc1nnc(-c2ccc[n+]([O-])c2)n1-c1c(Cl)c(Cl)cc2[nH]c(=O)c(=O)[nH]c12" ? false (0)

Could you check what this test reported for "CC(=O)c1ccccc1" ? false (0)

Could you check what this test reported for "O=S(=O)(O)c1ccc(N=Nc2c(O)ccc3cc(S(=O)(=O)O)ccc23)cc1" ? false (0)

Could you check what this test reported for "CC1(C)C(=O)N(Cl)C(=O)N1Cl" ? false (0)

Could you check what this test reported for FC(F)C(F)(F)COCC1CO1 (stereo unspecified) ? false (0)

Could you check what this test reported for CC(C)CC(C)O (stereo unspecified) ? false (0)

Could you check what this test reported for "c1ccc2ncccc2c1" ? false (0)

Could you check what this test reported for "CCCCCCOC(=O)CC(CC(=O)OCCCCCC)(OC(=O)CCC)C(=O)OCCCCCC" ? false (0)

Could you check what this test reported for "O=C(O)[C@H](O)[C@@H](O)C(=O)O" ? false (0)

Could you check what this test reported for "OCCOCCOCCO" ? false (0)
